targetUnderTest: calcium channel (Cavia porcellus, UniProt A0A286X7I0)
Construct: guinea-pig skeletal muscle membranes
Sequence (A0A286X7I0 1-1867): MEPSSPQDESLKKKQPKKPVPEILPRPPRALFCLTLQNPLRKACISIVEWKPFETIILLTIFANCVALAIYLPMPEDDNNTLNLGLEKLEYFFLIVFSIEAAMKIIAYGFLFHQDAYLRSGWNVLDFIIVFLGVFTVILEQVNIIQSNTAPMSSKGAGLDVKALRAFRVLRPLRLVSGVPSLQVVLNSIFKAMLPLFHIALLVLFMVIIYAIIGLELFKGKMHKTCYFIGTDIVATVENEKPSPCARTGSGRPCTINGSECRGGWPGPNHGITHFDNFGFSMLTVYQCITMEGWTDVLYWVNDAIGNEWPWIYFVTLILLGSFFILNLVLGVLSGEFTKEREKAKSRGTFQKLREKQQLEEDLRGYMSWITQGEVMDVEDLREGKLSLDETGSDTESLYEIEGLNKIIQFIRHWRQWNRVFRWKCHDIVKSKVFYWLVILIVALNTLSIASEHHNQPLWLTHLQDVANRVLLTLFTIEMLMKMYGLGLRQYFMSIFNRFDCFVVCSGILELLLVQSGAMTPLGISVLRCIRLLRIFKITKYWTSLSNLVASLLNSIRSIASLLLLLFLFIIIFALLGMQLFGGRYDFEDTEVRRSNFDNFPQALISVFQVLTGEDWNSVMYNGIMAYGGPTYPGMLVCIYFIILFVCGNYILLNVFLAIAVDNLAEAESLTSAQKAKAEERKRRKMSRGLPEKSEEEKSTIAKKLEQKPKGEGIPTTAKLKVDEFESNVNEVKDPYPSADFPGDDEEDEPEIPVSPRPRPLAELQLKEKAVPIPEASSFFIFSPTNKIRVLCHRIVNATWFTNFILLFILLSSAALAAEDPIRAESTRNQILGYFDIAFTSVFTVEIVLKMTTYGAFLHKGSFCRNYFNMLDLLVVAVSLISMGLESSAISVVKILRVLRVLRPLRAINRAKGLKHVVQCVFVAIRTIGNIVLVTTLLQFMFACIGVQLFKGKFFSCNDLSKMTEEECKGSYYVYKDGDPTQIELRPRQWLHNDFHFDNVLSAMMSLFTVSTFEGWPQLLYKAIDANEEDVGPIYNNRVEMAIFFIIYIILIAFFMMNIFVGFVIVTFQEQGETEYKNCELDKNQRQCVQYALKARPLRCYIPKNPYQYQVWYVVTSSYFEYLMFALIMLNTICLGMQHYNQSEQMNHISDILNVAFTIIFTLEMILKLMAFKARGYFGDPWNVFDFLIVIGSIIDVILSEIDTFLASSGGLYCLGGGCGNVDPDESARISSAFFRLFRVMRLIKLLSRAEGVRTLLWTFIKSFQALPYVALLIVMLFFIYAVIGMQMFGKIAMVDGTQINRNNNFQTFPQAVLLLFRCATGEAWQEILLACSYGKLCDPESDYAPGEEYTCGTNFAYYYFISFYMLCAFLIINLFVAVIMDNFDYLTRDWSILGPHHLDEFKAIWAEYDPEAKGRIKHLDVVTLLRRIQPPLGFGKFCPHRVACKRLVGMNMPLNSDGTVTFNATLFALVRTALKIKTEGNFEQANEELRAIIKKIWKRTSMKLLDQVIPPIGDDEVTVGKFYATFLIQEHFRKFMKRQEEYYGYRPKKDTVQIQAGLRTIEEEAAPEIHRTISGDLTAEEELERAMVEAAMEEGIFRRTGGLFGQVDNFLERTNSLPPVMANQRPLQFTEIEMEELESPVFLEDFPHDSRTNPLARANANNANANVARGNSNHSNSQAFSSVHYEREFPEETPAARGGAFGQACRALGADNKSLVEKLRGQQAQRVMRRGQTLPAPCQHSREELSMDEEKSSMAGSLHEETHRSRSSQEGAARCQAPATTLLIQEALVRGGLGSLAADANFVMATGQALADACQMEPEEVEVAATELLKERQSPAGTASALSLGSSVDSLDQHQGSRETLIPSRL
measurementProtocol: Affinity to the calcium channel: inhibition of specific (S)-3H-devapamil binding to guinea-pig skeletal muscle membranes
runConditions: 1 nM (S)-3H-devapamil, pH 7.4, 20° C., 60 minutes, read-out: Test 3 Ki
Entries whose Ki is below 10 nM take satisfied; entries at or above 10 nM take not satisfied.

compound: OC(COc1ccc(F)cc1)CN1CCN(CCCC(c2cccc(F)c2)c2cccc(F)c2)CC1 (stereo not drawn)
categoryLabel: not satisfied
--
compound: OC(COc1ccc(F)cc1)CN1CCN(CCCC(c2ccc(F)cc2)c2ccc(F)cc2)CC1 (single isomer, unassigned; (-)) [Example 29]
categoryLabel: satisfied
--
compound: OC(COc1ccc(F)cc1)CN1CCN(CCCC(c2ccccc2)c2ccccc2)CC1 (stereo not drawn)
categoryLabel: not satisfied
--
compound: Cc1ccc(C(CCCN2CCN(CC(O)COc3ccc(F)cc3)CC2)c2ccc(C)cc2)cc1 (stereo not drawn)
categoryLabel: not satisfied
--
compound: O=[N+]([O-])c1ccc(OCC(O)CN2CCN(CCCC(c3ccc(F)cc3)c3ccc(F)cc3)CC2)cc1 (stereo not drawn)
categoryLabel: not satisfied
--
compound: OC(COc1ccc(F)cc1)CN1CCCN(CCCC(c2ccc(F)cc2)c2ccc(F)cc2)CC1 (stereo not drawn)
categoryLabel: not satisfied
--
compound: OC(COc1ccccc1)CN1CCN(CCCC(c2ccccc2)c2ccccc2)CC1 (stereo not drawn)
categoryLabel: not satisfied
--
compound: OC(COc1cccc(C(F)(F)F)c1)CN1CCN(CCCC(c2ccc(F)cc2)c2ccc(F)cc2)CC1 (stereo not drawn)
categoryLabel: satisfied
--
compound: OC(COc1ccc(F)cc1)CN1CCN(CCC(c2ccccc2)c2ccccc2)CC1 (single isomer, unassigned; (-)) [Example 31]
categoryLabel: not satisfied
--
compound: OC(COc1ccccc1)CN1CCN(CCC(c2ccccc2)c2ccccc2)CC1 (stereo not drawn)
categoryLabel: not satisfied
--
compound: OC(COc1ccc(Cl)c(Cl)c1)CN1CCN(CCCC(c2ccc(F)cc2)c2ccc(F)cc2)CC1 (stereo not drawn)
categoryLabel: not satisfied
--
compound: OC(COc1ccc(F)cc1)CN1CCN(CCC(c2ccccc2)c2ccccc2)CC1 (single isomer, unassigned; (+)) [Example 32]
categoryLabel: not satisfied
